test system: CLL patient cells; test: CLL cell death, CellTox Green Cytotoxicity Assay; format: cell-based; conditions: Homo sapiens, 48 hours culture, FIG. 3, read-out: IC50, induction of CLL cell death
propertyName: pIC50
Scale for pIC50: -log10 of concentration given in mol/L; no unit attached.

Prompt: Could you share which pIC50 value was measured for CN(C)C/C=C/C(=O)Nc1cc2c(Nc3ccc(F)c(Cl)c3)ncnc2cc1O[C@H]1CCOC1 [Afatinib] ?
Response: 4.92
